Assay: Toxicity in C57BL/6 mice, two weeks (Example 48): liver enzyme levels, body, liver and spleen weight
Assay type: in vivo, mouse
Parameters: unit not given here
Conditions: 25 mg/kg i.p. twice a week
In the oligonucleotide strings, read from the 5' end, every base follows the letter of its sugar. An asterisk marks phosphorothioate; unmarked linkages are phosphodiester. Other units and linkages are bracketed, terminal groups are in braces. A string of capitals states the bases alone. e = 2'-O-(2-methoxyethyl) (MOE); [5mC] = 5-methylcytosine; d = 2'-deoxy (DNA)
Weight LIVER: recorded values

substance	reported_result
281625 (antisense eA*eG*eG*eT*eT*dA*d[5mC]*d[5mC]*dA*dG*d[5mC]*d[5mC]*dA*d[5mC]*dA*eT*eG*e[5mC]*eA*eG) [compound 281625]	1.2

Requested field: Weight LIVER. Item: 301027 (eG*e[5mC]*eT*e[5mC]*eA*d[5mC]*dT*dG*dT*dA*dT*dG*dG*dT*dT*eT*eT*eA*eT*e[5mC]; antisense) [compound 301027]
1.3

Which Weight LIVER is reported for this substance? 301012 (eG*e[5mC]*e[5mC]*eT*e[5mC]*dA*dG*dT*d[5mC]*dT*dG*d[5mC]*dT*dT*d[5mC]*eG*e[5mC]*eA*e[5mC]*e[5mC]) [compound 301012]
1.1

Given the substance 233175 (antisense eG*eA*e[5mC]*e[5mC]*eT*dT*dG*dA*dG*dT*dA*dG*dA*dT*dT*e[5mC]*e[5mC]*eT*eG*eG) [compound 233175] , what is its reported Weight LIVER?
1.4

For 233172 (antisense eA*eT*eG*eG*eA*dA*dG*dA*d[5mC]*dT*dG*dG*d[5mC]*dA*dG*e[5mC]*eT*e[5mC]*eT*eA) [compound 233172] , what is its reported Weight LIVER?
1.3

###

Each entry below carries its reported % Inhibition of apolipoprotein B protein secretion.
Tested on: apolipoprotein B protein
Test: Apolipoprotein B protein secreted from primary human hepatocytes, ELISA
Type: cell-based
Settings: 150 nM, 24 hours, "+" = increased
Method: Oligonucleotides were introduced into cells through LIPOFECTIN-mediated transfection as described by other examples herein. Cells were harvested both 24 and 48 hours after treatment with oligonucleotide, and both RNA and protein were isolated. […] Apolipoprotein secreted from into the cultured cell media was measured in the samples treated with 50 and 150 nM of oligonucleotide, using a target protein specific ELISA kit (ALerCHEK Inc., Portland, Me.). […]
In the oligonucleotide strings, read from the 5' end, every base follows the letter of its sugar. An asterisk marks phosphorothioate; unmarked linkages are phosphodiester. Other units and linkages are bracketed, terminal groups are in braces. A string of capitals states the bases alone. e = 2'-O-(2-methoxyethyl) (MOE); [5mC] = 5-methylcytosine; d = 2'-deoxy (DNA)

Below, 4 substances whose answers are already recorded.
substance	reported_result
ISIS 13650: SEQ ID NO: 806, control oligonucleotide (antisense TCCCGCCTGTGACATGCATT; listed as DNA, chemistry not given here) [reference compound]	+18%
GCCTCAGTCTGCTTCGCGCC (2'-MOE gapmer, further chemistry not given here) [ISIS 271009]	32%
ISIS 301027: SEQ ID NO: 262, 2′-MOE gapmer targeted to human apolipoprotein B (antisense eG*e[5mC]*eT*e[5mC]*eA*d[5mC]*dT*dG*dT*dA*dT*dG*dG*dT*dT*eT*eT*eA*eT*e[5mC])	32%
CTCTTACTGTGCTGTGGACA (antisense e[5mC]*eT*e[5mC]*eT*eT*dA*d[5mC]*dT*dG*dT*dG*d[5mC]*dT*dG*dT*eG*eG*eA*e[5mC]*eA) [ISIS 113529, reference compound]	+1%

Shifting focus to the substance that follows.
Find % Inhibition of apolipoprotein B protein secretion (apolipoprotein B protein) for the entry ISIS 281625: SEQ ID NO: 224, 2′-MOE gapmer targeted to human apolipoprotein B (antisense eA*eG*eG*eT*eT*dA*d[5mC]*d[5mC]*dA*dG*d[5mC]*d[5mC]*dA*d[5mC]*dA*eT*eG*e[5mC]*eA*eG)
18%

###

Test system: human apolipoprotein B mRNA
Experiment: Apolipoprotein B mRNA in primary human hepatocytes, real-time PCR
Format: cell-based
Conditions: 150 nM, 24 hours (Table 37)
In the oligonucleotide strings, read from the 5' end, every base follows the letter of its sugar. An asterisk marks phosphorothioate; unmarked linkages are phosphodiester. Other units and linkages are bracketed, terminal groups are in braces. A string of capitals states the bases alone. e = 2'-O-(2-methoxyethyl) (MOE); [5mC] = 5-methylcytosine; d = 2'-deoxy (DNA)
Tag: class 1 if measured % Inhibition of apolipoprotein B mRNA expression is not below 70%, class 0 if it is.

substance	class_assignment
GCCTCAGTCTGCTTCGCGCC (2'-MOE gapmer, further chemistry not given here) [ISIS 271009]	class 1
ISIS 13650: SEQ ID NO: 806, control oligonucleotide (antisense TCCCGCCTGTGACATGCATT; listed as DNA, chemistry not given here) [reference compound]	class 0
ISIS 281625: SEQ ID NO: 224, 2′-MOE gapmer targeted to human apolipoprotein B (antisense eA*eG*eG*eT*eT*dA*d[5mC]*d[5mC]*dA*dG*d[5mC]*d[5mC]*dA*d[5mC]*dA*eT*eG*e[5mC]*eA*eG)	class 0

Now turn to the next substance.
Please check the record CTCTTACTGTGCTGTGGACA (antisense e[5mC]*eT*e[5mC]*eT*eT*dA*d[5mC]*dT*dG*dT*dG*d[5mC]*dT*dG*dT*eG*eG*eA*e[5mC]*eA) [ISIS 113529, reference compound] and state if its % Inhibition of apolipoprotein B mRNA expression is at or above 70%.
class 0

###

System: apolipoprotein B protein
Assay: Apolipoprotein B protein secreted from primary Cynomolgous monkey hepatocytes, ELISA
Type: cell-based
Conditions: primary Cynomolgous hepatocytes; 150 nM (Table 47)
Method: Apolipoprotein B protein secreted from primary Cynomolgous hepatocytes treated with 150 and 300 nM of oligonucleotide was measured by ELISA using an apolipoprotein B protein specific kit (ALerCHEK Inc., Portland, Me.). Each result represents the average of 3 experiments. Apolipoprotein B protein secreted primary Cynomolgous hepatocytes treated with 50 and 150 nM of ISIS 315089 and ISIS 281625 was measured by ELISA using an apolipoprotein B protein specific kit (ALerCHEK Inc., Portland, Me.). […]
In the oligonucleotide strings, read from the 5' end, every base follows the letter of its sugar. An asterisk marks phosphorothioate; unmarked linkages are phosphodiester. Other units and linkages are bracketed, terminal groups are in braces. A string of capitals states the bases alone. e = 2'-O-(2-methoxyethyl) (MOE); [5mC] = 5-methylcytosine; d = 2'-deoxy (DNA)
readout: % Reduction of monkey apolipoprotein B protein secretion (%)
Answer in %, number only, no unit symbol.

Worked cases, % Reduction of monkey apolipoprotein B protein secretion given:
                                  substance  value_units  reported_result
0  315089 (antisense eA*eG*eA*eT*eT*dA*d[5mC]*d[5mC]*dA*dG*d[5mC]*d[5mC]*dA*dT*dA*eT*eG*e[5mC]*eA*eG) [compound 315089]            %               25
1  281625 (antisense eA*eG*eG*eT*eT*dA*d[5mC]*d[5mC]*dA*dG*d[5mC]*d[5mC]*dA*d[5mC]*dA*eT*eG*e[5mC]*eA*eG) [compound 281625]            %               13
2  13650 (TCCCGCCTGTGACATGCATT; listed as DNA, chemistry not given here) [compound 13650]            %               13

Field request: % Reduction of monkey apolipoprotein B protein secretion | item: 113529 (antisense e[5mC]*eT*e[5mC]*eT*eT*dA*d[5mC]*dT*dG*dT*dG*d[5mC]*dT*dG*dT*eG*eG*eA*e[5mC]*eA) [compound 113529]
12

###

Listed below: % inhibition 300 nM values for each entry.
Tested on: human apolipoprotein B mRNA
Assay: Inhibition of human apolipoprotein B mRNA levels in HepG2 cells, quantitative real-time PCR
Assay type: cell-based
Settings: Table 19 dose response; HepG2 cells, 300 nM; normalized to untreated control
In the oligonucleotide strings, read from the 5' end, every base follows the letter of its sugar. An asterisk marks phosphorothioate; unmarked linkages are phosphodiester. Other units and linkages are bracketed, terminal groups are in braces. A string of capitals states the bases alone. e = 2'-O-(2-methoxyethyl) (MOE); [5mC] = 5-methylcytosine; d = 2'-deoxy (DNA)
Write the number in % without appending the unit.

For orientation, consider the following solved cases.
substance	value_units	% inhibition 300 nM
301037 (e[5mC]*eA*eG*e[5mC]*eT*dT*dT*dG*dG*dT*dG*d[5mC]*dA*dG*dG*eT*e[5mC]*e[5mC]*eA*eG; antisense) [compound 301037]	%	96
301034 (eT*eG*e[5mC]*eT*eT*dA*dT*dA*dG*dT*d[5mC]*dT*dA*d[5mC]*dT*eG*e[5mC]*e[5mC]*eT*eA; antisense) [compound 301034]	%	97
301045 (eA*eG*e[5mC]*eA*eA*dA*dA*dT*dA*dA*d[5mC]*dT*d[5mC]*dA*dG*eA*eT*e[5mC]*e[5mC]*eT; antisense) [compound 301045]	%	98
271009 (antisense eG*e[5mC]*e[5mC]*eT*e[5mC]*dA*dG*dT*d[5mC]*dT*dG*d[5mC]*dT*dT*d[5mC]*eG*e[5mC]*eG*e[5mC]*e[5mC]) [compound 271009]	%	96

Value lookup for % inhibition 300 nM; key = 301014 (e[5mC]*eA*eG*e[5mC]*e[5mC]*d[5mC]*d[5mC]*dG*d[5mC]*dA*dG*dG*dT*d[5mC]*d[5mC]*e[5mC]*eG*eG*eT*eG; antisense) [compound 301014]
98

Any idea what % inhibition 300 nM was measured for 301028 (eG*eG*e[5mC]*eT*e[5mC]*dA*d[5mC]*dT*dG*dT*dA*dT*dG*dG*dT*eT*eT*eT*eA*eT; antisense) [compound 301028] ?
92

% inhibition 300 nM for 301031 (eA*eA*eG*eG*e[5mC]*dT*dG*dG*d[5mC]*dT*d[5mC]*dA*d[5mC]*dT*dG*eT*eA*eT*eG*eG; antisense) [compound 301031] ?
96

// % inhibition 300 nM lookup, key: 301036 (eT*eT*eT*eG*eG*dT*dG*d[5mC]*dA*dG*dG*dT*d[5mC]*d[5mC]*dA*eG*eT*eT*e[5mC]*eA; antisense) [compound 301036]
95

Name the reported % inhibition 300 nM value associated with the substance 281625 (antisense eA*eG*eG*eT*eT*dA*d[5mC]*d[5mC]*dA*dG*d[5mC]*d[5mC]*dA*d[5mC]*dA*eT*eG*e[5mC]*eA*eG) [compound 281625]
94
